# Papp A→B at 120 min listing for each entry below
Test: bidirectional Caco-2 permeability assay
Type: in vitro ADME
Settings: human, Caco-2; Direction: A-B (apical-to-basolateral), n=2
The reply should contain only the number, in ×10⁻⁶ cm/s.

[[record]]
molecule = "CC(=O)Nc1cc(NC(=O)c2ccco2)cc(C(=O)Nc2cccc3nnc(C)cc23)c1"
result_number = 0.0375


Input: Report Papp A→B at 120 min for Cc1cc2c(NC(=O)c3cc(NC(=O)c4ccco4)cc(-c4ccn(C)n4)c3)cccc2nn1 please.
Output: 0.549

Input: Looking for the measured Papp A→B at 120 min of Cc1cc2c(NC(=O)c3cc(NC(=O)[C@H]4CCCO4)cc(-c4ccn(C)n4)c3)cccc2nn1 , can you help?
Output: 0.623

====

Biological target: BRD4(1) (Homo sapiens)
Assay: BROMOscan bromoKdELECT
Settings: commercial Bromoscan assay
Method: was used as the calibration curve. To obtain saturated solutions of the compounds of interest, in duplicates 4.4 µL of a 10 or 5 mM stock in DMSO was added to 436 µL Buffer (PBS, pH = 7.4), to give a final concentration of 100 or 50 µM. […] 304 µL of the filtrate was mixed with 76 µL of acetonitrile on a dilution plate, from which 350 µL was transferred to a UV-plate and UV-absorption was read using a SpectraMax M5 (Molecular devices). […] The bromodomain concentration in the eluates was measured by qPCR. […]
REPORTED ENDPOINT: Kd (µM)
Provide the reading as a plain figure in µM.

The cases that follow already have their Kd on record.
[[record]]
molecule = "Cc1cc2c(NC(=O)c3cc(NC(=O)c4ccco4)cc(-c4ccn(C)n4)c3)cccc2nn1"
reported_endpoint = "Kd"
result_number = 3.7

[[record]]
molecule = "Cc1cc2c(NC(=O)c3cc(NC(=O)[C@H]4CCCO4)cc(-c4ccn(C)n4)c3)cccc2nn1"
reported_endpoint = "Kd"
result_number = 5.1


# next molecule below
Input: Give the measured Kd of CC(=O)Nc1cc(NC(=O)c2ccco2)cc(C(=O)Nc2cccc3nnc(C)cc23)c1 .
Output: 5.8

====

Assay: bidirectional Caco-2 permeability assay
Assay type: in vitro ADME
Conditions: human, Caco-2, Direction: B-A (basolateral-to-apical)
REPORTED ENDPOINT: recovery at 120 min (%)
A number alone suffices; assume %.

See these solved cases before continuing.
[[record]]
molecule = "CC(=O)Nc1cc(NC(=O)c2ccco2)cc(C(=O)Nc2cccc3nnc(C)cc23)c1"
readout_units = "%"
result_number = 87.3

[[record]]
molecule = "Cc1cc2c(NC(=O)c3cc(NC(=O)c4ccco4)cc(-c4ccn(C)n4)c3)cccc2nn1"
readout_units = "%"
result_number = 61.8


Input: Suppose we examine the compound Cc1cc2c(NC(=O)c3cc(NC(=O)[C@H]4CCCO4)cc(-c4ccn(C)n4)c3)cccc2nn1 ; what recovery at 120 min value has been reported?
Output: 78

====

Assay: kinetic solubility
Assay type: physicochemical
Conditions: PBS buffer, aqueous buffer, kinetic from dmso stock, PBS pH 7.4, 37°C, ± st. dev. between technical replicates, read-out: Kin. Sol.
solubility kinetic at 90 min reference
Please respond with the number in µM and leave the unit unwritten.

[[record]]
compound = "Cc1cc2c(NC(=O)c3cc(NC(=O)C4COC4)cc(-c4ccn(C)n4)c3)cccc2nn1 [Compound 7]"
reported_endpoint = "solubility kinetic at 90 min"
result_number = 82.6

[[record]]
compound = "Cc1cc2c(NC(=O)c3cc(NC(=O)c4ccco4)cc(-c4nn(C)cc4Cl)c3)cccc2nn1 [Compound 3]"
reported_endpoint = "solubility kinetic at 90 min"
result_number = 9.5

[[record]]
compound = "CC(=O)Nc1cc(NC(=O)c2ccco2)cc(C(=O)Nc2cccc3nnc(C)cc23)c1 [Compound 1]"
reported_endpoint = "solubility kinetic at 90 min"
result_number = 22.2


Input: Fill blank: measured solubility kinetic at 90 min of the compound Cc1cc2c(NC(=O)c3cc(NC(=O)c4ccc(CN5CCN(C)CC5)o4)cc(-c4ccn(C)n4)c3)cccc2nn1 [Compound 8] is ____.
Output: 69.9

Input: // solubility kinetic at 90 min lookup, key: Cc1cc2c(NC(=O)c3cc(NC(=O)[C@H]4CCCO4)cc(-c4ccn(C)n4)c3)cccc2nn1 [Compound 5]
Output: 69.7

Input: Field request: solubility kinetic at 90 min | item: Cc1cc2c(NC(=O)c3cc(NC(=O)[C@@H]4CCCO4)cc(-c4ccn(C)n4)c3)cccc2nn1 [Compound 6]
Output: 71

Input: Quick one: solubility kinetic at 90 min for Cc1cc2c(NC(=O)c3cc(NC(=O)c4ccco4)cc(-c4c(C)n[nH]c4C)c3)cccc2nn1 [Compound 4] ?
Output: 6

Input: What measured solubility kinetic at 90 min goes with Cc1cc2c(NC(=O)c3cc(NC(=O)c4ccco4)cc(-c4ccn(C)n4)c3)cccc2nn1 [Compound 2] ?
Output: 3.2

====

Assay: bidirectional Caco-2 permeability assay
Type: in vitro ADME
Settings: human, Caco-2; Direction: B-A (basolateral-to-apical), n=2
Description: Bidirectional Caco-2 Permeability Assay (provided by Cyprotex Discovery Ltd; Cheshire, UK)19 Following a standard Cyprotex procedure, Caco-2 cells (ATCC), used at passages 40–60, were seeded nt ranswe inserts at a densit f × ⁵ ce s/cm² and maintained in with media changes carried out every 2–3 days. […] After a 120 min incubation, samples from both compartments were collected and diluted for quantification. Permeability was assessed in duplicates, and reference […]
REPORTED ENDPOINT: Papp B→A at 120 min (×10⁻⁶ cm/s)
Write the number in ×10⁻⁶ cm/s without appending the unit.

[[record]]
molecule = "Cc1cc2c(NC(=O)c3cc(NC(=O)[C@H]4CCCO4)cc(-c4ccn(C)n4)c3)cccc2nn1"
result_number = 32.5


Input: Name the recorded Papp B→A at 120 min for Cc1cc2c(NC(=O)c3cc(NC(=O)c4ccco4)cc(-c4ccn(C)n4)c3)cccc2nn1 .
Output: 29

Input: State the recorded Papp B→A at 120 min for this entry: CC(=O)Nc1cc(NC(=O)c2ccco2)cc(C(=O)Nc2cccc3nnc(C)cc23)c1
Output: 11.5

====

Tested on: MRC5 cells
Test: viability assay (resazurin)
Type: cell-based
Conditions: three-day treatment, concentration resulting in 70 % viability
REPORTED ENDPOINT: GI30

Example entries and their recorded answers appear below.
[[record]]
molecule = "CC(=O)N1CCc2c(c(Nc3ccc(-c4cnn(C)c4)cc3F)nn2[C@H]2CCOC2)C1 [GNE-272, reference compound]"
reported_endpoint = "GI30"
result = "> 10 µM"

[[record]]
molecule = "Cc1cc2c(NC(=O)c3cc(NC(=O)c4ccco4)cc(-c4ccn(C)n4)c3)cccc2nn1"
reported_endpoint = "GI30"
result = "> 10 µM"

[[record]]
molecule = "CNC(=O)Nc1ccc2c(c1)CC[C@@]21OC(=O)N(CC(=O)N(Cc2ccc(F)cc2)[C@@H](C)C(F)(F)F)C1=O"
reported_endpoint = "GI30"
result = "1.2 µM"


Input: Reported GI30, molecule Cc1cc2c(NC(=O)c3cc(NC(=O)[C@H]4CCCO4)cc(-c4ccn(C)n4)c3)cccc2nn1 : ____
Output: > 10 µM

====

Assay: bidirectional Caco-2 permeability assay
Format: in vitro ADME
Details: human, Caco-2, Direction: A-B (apical-to-basolateral)
REPORTED ENDPOINT: recovery at 120 min (%)
Note: unit % is implicit; provide only the numeric part.

[[record]]
molecule = "Cc1cc2c(NC(=O)c3cc(NC(=O)c4ccco4)cc(-c4ccn(C)n4)c3)cccc2nn1"
reported_endpoint = "recovery at 120 min"
result_number = 47

[[record]]
molecule = "Cc1cc2c(NC(=O)c3cc(NC(=O)[C@H]4CCCO4)cc(-c4ccn(C)n4)c3)cccc2nn1"
reported_endpoint = "recovery at 120 min"
result_number = 68.2


Now look at this entry.
Input: Return reported recovery at 120 min; argument: CC(=O)Nc1cc(NC(=O)c2ccco2)cc(C(=O)Nc2cccc3nnc(C)cc23)c1
Output: 80

====

Target: CBP (Homo sapiens)
Sequence (Q92793 1085-1192 limits assumed): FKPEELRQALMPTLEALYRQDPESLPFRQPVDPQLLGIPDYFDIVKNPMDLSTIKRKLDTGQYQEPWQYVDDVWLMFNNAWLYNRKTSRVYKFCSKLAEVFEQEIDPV
Assay: commercial Bromoscan assay
Procedure: was used as the calibration curve. To obtain saturated solutions of the compounds of interest, in duplicates 4.4 µL of a 10 or 5 mM stock in DMSO was added to 436 µL Buffer (PBS, pH = 7.4), to give a final concentration of 100 or 50 µM. […] 304 µL of the filtrate was mixed with 76 µL of acetonitrile on a dilution plate, from which 350 µL was transferred to a UV-plate and UV-absorption was read using a SpectraMax M5 (Molecular devices). […] The bromodomain concentration in the eluates was measured by qPCR. […]
REPORTED ENDPOINT: Kd

Input: Which measured Kd value corresponds to Cc1cc2c(NC(=O)c3cc(NC(=O)c4ccco4)cc(-c4ccn(C)n4)c3)cccc2nn1 [Compound 2] ?
Output: 9 nM
